List of melting point values.
# unit: °C | format: bare number

Would you please look over these solved cases?
COMPOUND	VALUE KIND	VALUE REPORTED
CCOc1cc(-c2cc(C(F)(F)F)nc(-c3ccnc(-c4cccc(S(N)(=O)=O)c4)c3)n2)ccc1C(F)(F)F [Example 452]	melting point	223.5
Nc1ccc(-c2cn(-c3nc(-c4ccc(Cl)c(Cl)c4)cc(C(F)(F)F)n3)cn2)cn1 [Example 102]	melting point	282.5
NS(=O)(=O)c1ccc(-c2cccc(-c3nc(-c4ccc(Cl)c(Cl)c4)cc(C(F)(F)F)n3)c2)s1 [Example 204]	melting point	203
Cc1cc(-c2ccc(Cl)cc2)nc(-c2cccc(-c3ccc(S(N)(=O)=O)s3)c2)n1 [Example 173]	melting point	227

Memo: Cc1cc(-c2ccc(C(F)(F)F)cc2)nc(-c2ccnc(-c3cccc(S(=O)(=O)NC(C)(C)C)c3)c2)c1 [Example 297] , reported melting point: 189

###

We label by threshold. Values of melting point strictly beneath 200 °C are Criterion met. Values of 200 °C and up are Criterion not met.

COMPOUND	CATEGORY
Cc1cc(-c2ccc(C(F)(F)F)cc2)nc(-n2cnc(-c3ccc(S(N)(=O)=O)s3)c2)n1 [Example 191]	Criterion not met
NS(=O)(=O)c1cccc(-c2cc(-c3nc(-c4ccc(C(F)(F)F)c(OCC(F)(F)F)c4)cc(C(F)(F)F)n3)ccn2)c1 [Example 448]	Criterion not met
CC(=O)Nc1ccc(-c2cn(-c3nc(-c4ccc(C(F)(F)F)cc4)cc(C(F)(F)F)n3)cn2)cn1 [Example 95]	Criterion not met
CCC(=O)NS(=O)(=O)c1ccc(-c2cc(-c3nc(-c4ccc(C(F)(F)F)cc4)cc(C(F)(F)F)n3)ccn2)s1 [Example 375]	Criterion not met
Cc1cc(-c2ccc(C(F)(F)F)cc2)cc(-c2cccc(-c3cccc(S(=O)(=O)NCCOCCO)c3)n2)n1 [Example 372]	Criterion met

Take the compound Nc1ccc(-c2noc(-c3nc(-c4ccc(Cl)cc4)cc(C(F)(F)F)n3)n2)cn1 [Example 9] and say whether its melting point is less than 200 °C.
Criterion not met

Take the compound CNS(=O)(=O)c1cccc(-c2cc(-c3nc(-c4ccc(C(F)(F)F)cc4)cc(C(F)(F)F)n3)ccn2)c1 [Example 402] and say whether its melting point is less than 200 °C.
Criterion met

Take the compound Cc1cc(-c2ccc(C(F)(F)F)cc2)cc(-c2cccc(C#N)c2)n1 [Example 242] and say whether its melting point is less than 200 °C.
Criterion met

Take the compound CS(=O)(=O)c1cccc(-c2cc(-c3nc(-c4ccc(C(F)(F)F)cc4)cc(C(F)(F)F)n3)ccn2)c1 [Example 218] and say whether its melting point is less than 200 °C.
Criterion not met

Take the compound Cc1cc(-c2ccc(C(F)(F)F)cc2)nc(-c2cccc(-c3cccc(S(N)(=O)=O)c3)n2)c1 [Example 310] and say whether its melting point is less than 200 °C.
Criterion not met

Take the compound Cc1cc(-c2ccc(C(F)(F)F)cc2)cc(-c2ccnc(-c3cccc(S(=O)(=O)NC(C)(C)CO)c3)c2)n1 [Example 349] and say whether its melting point is less than 200 °C.
Criterion met

Take the compound Cc1cc(-c2cc(C(F)(F)F)nc(-n3cnc(-c4cnc(N)nc4)c3)n2)ccc1C(F)(F)F [Example 125] and say whether its melting point is less than 200 °C.
Criterion not met

Take the compound NS(=O)(=O)c1cccc(-c2cccc(-c3cc(-c4ccc(C(F)(F)F)cc4)cc(C(F)(F)F)n3)c2)c1 [Example 244] and say whether its melting point is less than 200 °C.
Criterion met

Take the compound Cc1cc(-c2ccc(C(F)(F)F)cc2)nc(-n2cnc(-c3ccc(S(N)(=O)=O)cc3)c2)n1 [Example 183] and say whether its melting point is less than 200 °C.
Criterion not met

Take the compound Cc1cc(-c2ccc(C(F)(F)F)cc2)nc(-c2cccc(-c3cccc(S(=O)(=O)NC(C)(C)C)c3)n2)n1 [Example 418] and say whether its melting point is less than 200 °C.
Criterion not met

Take the compound NS(=O)(=O)c1ccc(-c2noc(-c3nc(-c4ccc(Cl)cc4)cc(C(F)(F)F)n3)n2)cc1 [Example 17] and say whether its melting point is less than 200 °C.
Criterion not met

Take the compound Cc1cc(-c2cccc(-c3nc(-c4ccc(C(F)(F)F)cc4)cc(C(F)(F)F)n3)c2)cc(C)n1 [Example 42] and say whether its melting point is less than 200 °C.
Criterion met

Take the compound NS(=O)(=O)c1cncc(-c2cn(-c3cc(C(F)(F)F)cc(-c4ccc(C(F)(F)F)cc4)n3)cn2)c1 [Example 290] and say whether its melting point is less than 200 °C.
Criterion not met

Take the compound Cc1cc(-c2ccc(C(F)(F)F)cc2)nc(-n2cnc(-c3ccc(N)nc3)n2)n1 [Example 151] and say whether its melting point is less than 200 °C.
Criterion not met

Take the compound Cc1cc(-c2cc(C(F)(F)F)nc(-n3cnc(-c4ccc(N)nc4)c3)n2)ccc1Cl [Example 104] and say whether its melting point is less than 200 °C.
Criterion not met

Take the compound Cc1cc(-c2ccc(C(F)(F)F)cc2)cc(-c2nccs2)n1 [Example 251] and say whether its melting point is less than 200 °C.
Criterion met

Take the compound NS(=O)(=O)c1ccc(-c2cccc(-c3nc(-c4ccc(F)c(F)c4)cc(C(F)(F)F)n3)c2)s1 [Example 388] and say whether its melting point is less than 200 °C.
Criterion not met
